Attribute: self-cleavage
B1: HDV Ribozyme (parent)
chain: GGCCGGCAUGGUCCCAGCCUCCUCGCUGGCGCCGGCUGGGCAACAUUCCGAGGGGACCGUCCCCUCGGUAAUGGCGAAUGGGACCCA

# Variants of: B1
# procedure details: self-cleavage, relative activity (ratio to wild type); higher = more cleavage; co-transcriptional

Take a look at these entries with their results.
>>> observed("G50A G74C")
0.242
>>> observed("G5C C84A")
0.142
>>> observed("C14A C58G")
0.762
>>> observed("C22A A51G")
0.457

Value lookup for self-cleavage; key = U47A G54C
1.01

Value lookup for self-cleavage; key = G2U C26G
0.0627

Value lookup for self-cleavage; key = C49U C64A
0.739
